# Population Normal (%) values compiled below
test system: HEK-293T; test: Multiplex assay against HEK293T; type: toxicity, cell-based; conditions: human, 24 h, 1 µM, compound concentration 1 uM, replicate 1
Give just the number in %; leave the unit off.

INSERT INTO measurements (compound, target_under_test, measured_number) VALUES
  ('Cc1nc(-c2cn3c(n2)-c2ccc(-c4cnn(C(C)(C)C(N)=O)c4)cc2OCC3)n(C(C)C)n1 [TASELISIB]', 'HEK-293T', 82),
  ('Cc1nc(Nc2n[nH]c3c2CN(C(=O)N[C@H](CN(C)C)c2ccccc2)C3(C)C)c2sccc2n1 [PF-03758309]', 'HEK-293T', 90),
  ('CC[C@H](C)C(=O)O[C@H]1C[C@@H](C)C=C2C=C[C@H](C)[C@H](CC[C@@H]3C[C@@H](O)CC(=O)O3)[C@H]21 [LOVASTATIN]', 'HEK-293T', 80),
  ('CC(C)NCC(O)COc1ccc(CCOCC2CC2)cc1.Cl (stereo not drawn) [BETAXOLOL HYDROCHLORIDE]', 'HEK-293T', 92),
  ('C[C@@H](NCCCc1cccc(C(F)(F)F)c1)c1cccc2ccccc12.Cl [CINACALCET HYDROCHLORIDE]', 'HEK-293T', 92);

Incoming: Reported Population Normal (%), compound CCN(CC)CCCCNc1ncc2cc(-c3cc(OC)cc(OC)c3)c(NC(=O)NC(C)(C)C)nc2n1 [PD-173074] : ____
Outgoing: 44

Incoming: Which value of Population Normal (%) has been reported for CN(C)C(=O)/C(C#N)=C/c1ccc(-c2nc3cnc4[nH]ccc4c3n2C2CCCCC2)o1 in the records?
Outgoing: 85

Incoming: Query (compound): NC(=O)Nc1cc(-c2cccc(F)c2)sc1C(=O)N[C@H]1CCCNC1 [AZD-7762] ; field requested: Population Normal (%)
Outgoing: 87
